Test system: MCF7
Test: NCI tumour cell line growth inhibition, 48 h
Active and inactive are the calls of the source. Cut-off read from the data, not from the text of the source: active = GI50 up to about 1.1 µM and inactive = higher.
Result category, one only: 1 (yes) = active, 0 (no) = inactive

## Task # outcome recorded in this test, key = `c1ccc2c(c1)SCCCSCCSCCCS2`
## Result 0 (no)

## Task Answer briefly: the call reported for O=C(O)C1Cc2ccccc2OC1=O (stereo not given) in this assay.
## Result 0 (no)

## Task Assay result, entry `O=C1C(=C2SC(c3ccccc3)(c3ccccc3)c3ccccc32)C(=O)c2ccccc21` — outcome?
## Result 0 (no)

## Task # lookup: test call for `NC(=O)CO/N=C1/C(=C2/C(=O)Nc3ccccc32)Nc2ccccc21`
## Result 0 (no)

## Task Please share the test call associated with `O=C(NC(=O)c1ccccc1[N+](=O)[O-])Nc1ccc(Oc2ncc(Br)cn2)c(Cl)c1` .
## Result 1 (yes)

## Task Entry CCC(Nc1ncnc2nc[nH]c12)C(=O)O (stereo not given) : call = ?
## Result 0 (no)

## Task Please indicate how the test categorized `COc1ccc(/C=C(/c2ccc(OC)cc2)c2c(Cl)cc(Cl)c(/C(=C\c3ccc(OC)cc3)c3ccc(OC)cc3)c2/N=N/c2ccccc2)cc1` .
## Result 0 (no)

## Task Each compound tested received a call. Report the one for `Cc1c2cnccc2c(C)c2c1c1ccccc1n2CCOC(=O)c1ccccc1` .
## Result 0 (no)

## Task Which outcome was entered for the compound `C1=N\CCNCC/N=C\c2ccc(cc2)OCc2cccc(n2)COc2ccc/1cc2` in this test?
## Result 0 (no)

## Task GET /call?item= `FC(F)(Sc1ccccc1)c1nc2ccccc2o1` returns the recorded outcome of this test.
## Result 0 (no)

###

System: RXF 393
Assay: NCI tumour cell line growth inhibition, 48 h
Active and inactive are the calls of the source. No stated cut-off is given here; in the data, active = GI50 up to about 1.1 µM and inactive = higher.
QUANTITY_NAME: GI50

## Task Note GI50 for the compound shown: `S=c1[nH]nc(Cn2c3ccc(Br)cc3c3nc4ccccc4nc32)o1`
## Result 14.8 µM (inactive)

## Task Recall and state the measured GI50 for O=C(O)C(C(=O)C(=O)C(C(=O)O)c1ccc(Cl)cc1)c1ccc(Cl)cc1 (stereo not given) .
## Result 3.92 µM (inactive)

## Task State its GI50 for this compound: `O=C1Oc2ccccc2C(=O)/C1=C/N1C(=O)CNC1=S`
## Result 26.9 µM (inactive)

## Task Provide one value: measured GI50 of COc1ccc(NC(=O)CC(=O)N2N=C(c3ccccc3)C(/N=N/c3ccc(S(=O)(=O)CCOS(=O)(=O)O)cc3)C2=O)cc1 (stereo not given)
## Result > 100 µM (inactive)

## Task Return GI50 for the following compound: `COc1cc(-c2cc(O)c(-c3ccc4ccccc4n3)c(O)n2)cc(OC)c1OC`
## Result 39.9 µM (inactive)

###

Test system: SK-MEL-28
Experiment: NCI tumour cell line growth inhibition, 48 h
The source made the active and inactive calls. Cut-off read from the data, not from the text of the source: active = GI50 up to about 1.1 µM and inactive = higher.
Exercise: for every item that follows, state its recorded GI50.

## Task Give GI50 for the following molecule: Fc1ccccc1C1CC(C(c2ccccc2)c2ccccc2)=Nc2ccccc2S1 (stereo not given)
## Result 12.6 µM (inactive)

## Task Using known records, supply GI50 for `O=C1Oc2ccccc2C(=O)/C1=C\Nc1nc(-c2ccccc2)cs1`
## Result 16.1 µM (inactive)

## Task Output GI50 of C=CCN(c1cc(OC)c2c(c1[N+](=O)[O-])C(C)(SC)C(=O)N2)S(C)(=O)=O (stereo not given)
## Result > 100 µM (inactive)

## Task Give recorded GI50. `COc1cc2c(cc1OC)C(=O)Cc1ccc(OC)c(OC)c1CN(C)CC2`
## Result > 100 µM (inactive)

## Task Determine its reported GI50: `Cn1cnc([N+](=O)[O-])c1Sc1nnc(-c2cccnc2)n1C`
## Result 17.5 µM (inactive)
